Data provenance is PubChem BioAssay AID1963840.

# System: 695427-040-R-J1-PDC complex spheroid viability
# assay.details: Anticancer human tumor 695427-040-R-J1-PDC patient-derived colon adenocarcinoma cell line growth inhibition [POLQ]
# experimental.parameters: second compound 0.316 µM; first compound 3.16 µM; stronger effect = lower value
measured.parameter: viability, T/C (%)
Your answer is read as %, so omit the unit and give the number.

Name the reported viability, T/C value associated with the compound O=c1[nH]cc(F)c(=O)[nH]1 + COC1C(OC(N)=O)C(O)C(Oc2ccc3c(O)c(NC(=O)c4ccc(O)c(CC=C(C)C)c4)c(=O)oc3c2C)OC1(C)C 109

Which viability, T/C is reported for this compound? Nc1ccn(C2OC(CO)C(O)C2(F)F)c(=O)n1 (stereo not drawn) + Nc1ccc(C#CCN(C(=O)Cc2ncc(C(F)(F)F)cc2C(F)(F)F)c2ccc(F)cc2)nn1 79

Name the recorded viability, T/C for CNCc1ccc(-c2[nH]c3cc(F)cc4c3c2CCNC4=O)cc1 + Nc1ccc(C#CCN(C(=O)Cc2ncc(C(F)(F)F)cc2C(F)(F)F)c2ccc(F)cc2)nn1 . 115

----------
# System: 695427-040-R-J1-PDC complex spheroid viability
# assay.details: Anticancer human tumor 695427-040-R-J1-PDC cell line growth inhibition [POLQ];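 further: spheroids exposed to compounds for seven days; 100% = DMSO vehicle control viability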
# experimental.parameters: second compound 3.16 µM; first compound 0.01 µM; stronger effect = lower value
Kindly state viability, T/C for each of the entries shown.
The figure you give is taken to be in %; do not add the unit.

Could you tell me which viability, T/C is on file for CCc1c2c(nc3ccc(O)cc13)-c1cc3c(c(=O)n1C2)COC(=O)[C@]3(O)CC + COC1C(OC(N)=O)C(O)C(Oc2ccc3c(O)c(NC(=O)c4ccc(O)c(CC=C(C)C)c4)c(=O)oc3c2C)OC1(C)C ? 90.9

Would you mind telling me what viability, T/C value was observed for CCc1c2c(nc3ccc(O)cc13)-c1cc3c(c(=O)n1C2)COC(=O)[C@]3(O)CC + Cc1cccc(N(C)C(=O)C2C(O)CCN2c2nc(C)cc(C(F)(F)F)c2C#N)c1 ? 84.9

Item under review: Cn1ncnc1[C@H]1c2n[nH]c(=O)c3cc(F)cc(c23)N[C@@H]1c1ccc(F)cc1 + Cc1cccc(N(C)C(=O)C2C(O)CCN2c2nc(C)cc(C(F)(F)F)c2C#N)c1 . Reported viability, T/C? 101

So what's the measured viability, T/C for this one? COc1cccc(OCCCN)c1-c1cc(Nc2cnc(C#N)cn2)n[nH]1 + Cc1cccc(N(C)C(=O)C2C(O)CCN2c2nc(C)cc(C(F)(F)F)c2C#N)c1 87.8

# lookup: viability, T/C of Cn1ncnc1[C@H]1c2n[nH]c(=O)c3cc(F)cc(c23)N[C@@H]1c1ccc(F)cc1 + Nc1ccc(C#CCN(C(=O)Cc2ncc(C(F)(F)F)cc2C(F)(F)F)c2ccc(F)cc2)nn1 103

Fill in: viability, T/C of CC[C@@]1(O)C(=O)OCc2c1cc1n(c2=O)Cc2cc3c(CN(C)C)c(O)ccc3nc2-1 + Cc1cccc(N(C)C(=O)C2C(O)CCN2c2nc(C)cc(C(F)(F)F)c2C#N)c1 is ___ 98.4

Which viability, T/C is reported for this compound? C=CCn1c(=O)c2cnc(Nc3ccc(N4CCN(C)CC4)cc3)nc2n1-c1cccc(C(C)(C)O)n1 + COC1C(OC(N)=O)C(O)C(Oc2ccc3c(O)c(NC(=O)c4ccc(O)c(CC=C(C)C)c4)c(=O)oc3c2C)OC1(C)C 102

Entry COc1cccc(OCCCN)c1-c1cc(Nc2cnc(C#N)cn2)n[nH]1 + Nc1ccc(C#CCN(C(=O)Cc2ncc(C(F)(F)F)cc2C(F)(F)F)c2ccc(F)cc2)nn1 has what viability, T/C? 90.1

Fill in: viability, T/C of CCc1c2c(nc3ccc(O)cc13)-c1cc3c(c(=O)n1C2)COC(=O)[C@]3(O)CC + Nc1ccc(C#CCN(C(=O)Cc2ncc(C(F)(F)F)cc2C(F)(F)F)c2ccc(F)cc2)nn1 is ___ 99.2

Entry C=CCn1c(=O)c2cnc(Nc3ccc(N4CCN(C)CC4)cc3)nc2n1-c1cccc(C(C)(C)O)n1 + Cc1cccc(N(C)C(=O)C2C(O)CCN2c2nc(C)cc(C(F)(F)F)c2C#N)c1 : reported viability, T/C = ? 90.8

Would you kindly share the measured viability, T/C for Cn1ncnc1[C@H]1c2n[nH]c(=O)c3cc(F)cc(c23)N[C@@H]1c1ccc(F)cc1 + COC1C(OC(N)=O)C(O)C(Oc2ccc3c(O)c(NC(=O)c4ccc(O)c(CC=C(C)C)c4)c(=O)oc3c2C)OC1(C)C ? 98.3
